Entries and their measured Kd follow.
target: GDP-bound KRAS wild-type protein (Homo sapiens, UniProt P01116); assay: Binding to KRAS by surface plasmon resonance (SPR), Single Cycle Kinetics; details: SPR, Single Cycle Kinetics, 1:1 binding model; GDP-bound KRAS wild-type protein; read-out: KRAS KD
Sequence (P01116 whole entry): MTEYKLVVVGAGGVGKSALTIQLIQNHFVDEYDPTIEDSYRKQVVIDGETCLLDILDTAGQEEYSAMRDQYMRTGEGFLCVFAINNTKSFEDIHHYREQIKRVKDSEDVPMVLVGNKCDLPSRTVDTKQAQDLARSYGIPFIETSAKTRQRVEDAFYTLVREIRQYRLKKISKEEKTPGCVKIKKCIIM

Smiles | Kd [nM]
CCCCCC[C@H]1C(=O)N[C@@H]([C@@H](C)CC)C(=O)N(C)CC(=O)N(C)[C@H]2C/C=C\CCN(C2=O)[C@@H](Cc2ccc(C(F)(F)F)cc2)C(=O)N(C)CC(=O)N[C@@H](CCc2cc(F)c(C(F)(F)F)c(F)c2)C(=O)N2C[C@H](OCC)C[C@H]2C(=O)NC2(CCC2)C(=O)N(C)[C@@H](C2CCCC2)C(=O)N(C)[C@H](C(=O)N(C)C)CC(=O)N1C | 0.076
CCO[C@@H]1C[C@H]2C(=O)NC3(CCC3)C(=O)N(C)[C@@H](C3CCCC3)C(=O)N(C)[C@H](C(=O)N3CCC3)CC(=O)N(C)[C@@H](CC)C(=O)N[C@@H]([C@@H](C)CC)C(=O)N(C)CC(=O)N(C)[C@H]3C/C=C\CCN(C3=O)[C@@H](CC3CCCCC3)C(=O)N(C)CC(=O)N[C@@H](CCc3cc(F)c(C(F)(F)F)c(F)c3)C(=O)N2C1 | 0.27
CC[C@H](C)[C@@H]1NC(=O)[C@H](CC)N(C)C(=O)C[C@@H](C(=O)N2CCOCC2)N(C)C(=O)[C@H](C2CCCC2)N(C)C(=O)C2(CCCC2)NC(=O)[C@@H]2CCCN2C(=O)[C@H](CCc2cc(F)c(C(F)(F)F)c(F)c2)NC(=O)CN(C)C(=O)[C@H](Cc2ccc(C(F)(F)F)cc2)N2C[C@H](C)[C@H](C)C[C@@H](C2=O)N(C)C(=O)CN(C)C1=O | 0.13
CCO[C@@H]1C[C@H]2C(=O)NC3(CCC3)C(=O)N(C)[C@@H](C(CC)CC)C(=O)N(C)[C@H](C(=O)N(C)C)CC(=O)N(C)[C@@H](CC3CC3)C(=O)N[C@@H]([C@@H](C)CC)C(=O)N(C)CC(=O)N(C)[C@H]3C/C=C\CCN(C3=O)[C@@H](Cc3ccc(C(F)(F)F)cc3)C(=O)N(C)CC(=O)N[C@@H](CCc3cc(F)c(C(F)(F)F)c(F)c3)C(=O)N2C1 | 0.23
CCO[C@@H]1C[C@H]2C(=O)NC3(CCC3)C(=O)N(C)[C@@H](C3CCCC3)C(=O)N(C)[C@H](C(=O)N3CCOCC3)CC(=O)N(C)[C@@H](CC)C(=O)N[C@@H]([C@@H](C)CC)C(=O)N(C)CC(=O)N(C)[C@H]3CC[C@@H](C)CN(C3=O)[C@@H](Cc3ccc(C(F)(F)F)cc3)C(=O)N(C)CC(=O)N[C@@H](CCc3cc(F)c(C(F)(F)F)c(F)c3)C(=O)N2C1 | 0.078

====

target: GDP-bound KRAS wild-type protein (Homo sapiens); assay: Binding to KRAS by surface plasmon resonance (SPR), Single Cycle Kinetics; details: SPR, Single Cycle Kinetics, GDP-bound KRAS wild-type protein; read-out: KRAS KD
pKd: −log10 of the molar value.

Smiles | pKd
CCC[C@H]1C(=O)N[C@@H]([C@@H](C)CC)C(=O)N(C2CC2)CC(=O)N(C)[C@H]2C/C=C\CCN(C2=O)[C@@H](Cc2ccc(C(F)(F)F)cc2)C(=O)N(C)CC(=O)N[C@@H](CCc2ccc(C(F)(F)F)c(OC)c2)C(=O)N2C[C@H](OCC)C[C@H]2C(=O)N(C)C2(CCC2)C(=O)N(C)[C@@H](C2CCCC2)C(=O)N(C)[C@H](C(=O)N2CCCCC2)CC(=O)N1C | 9.17
CCCOC[C@H]1C(=O)N[C@@H]([C@@H](C)CC)C(=O)N(C)CC(=O)N(C)[C@H]2C/C=C\CCN(C2=O)[C@@H](Cc2ccc(C(F)(F)F)cc2)C(=O)N(C)CC(=O)N[C@@H](CCc2ccc(C(F)(F)F)c(Cl)c2)C(=O)N2C[C@H](OCC)C[C@H]2C(=O)NC2(CC(C)(C)C2)C(=O)N(C)[C@@H](C2CCCC2)C(=O)N(C)[C@H](C(=O)N(C)C)CC(=O)N1C | 10.19
CC[C@H](C)[C@@H]1NC(=O)[C@H](CC(C)C)N(C)C(=O)C[C@@H](C(=O)N(C)C)N(C)C(=O)[C@H](C2CCCC2)N(C)C(=O)C2(CC(C)(C)C2)NC(=O)[C@@H]2C[C@H](C)CN2C(=O)[C@H](CCc2cc(F)c(C(F)(F)F)c(F)c2)NC(=O)CN(C)C(=O)[C@H](Cc2ccc(C(F)(F)F)cc2)N2CC/C=C\C[C@@H](C2=O)N(C)C(=O)CN(C)C1=O | 9.85
